Give apparent KD of MS2 coat protein for every item shown.
test system: MS2 coat protein; experiment: apparent KD of MS2 coat protein; higher = weaker reporter binding; settings: Eterna round: R107; input ligand: theophylline 2 mM

Task item: Recall the recorded apparent KD of MS2 coat protein for UAAGCGCGAGGAGACGGAACCAAUCUUGUUCGAGGACCGGUACGGCCGCCACUCGGCGUAAAACAUGAGGAUCACCCAUGUGCAA [theeternabot_exclusion_MS2_Trp_A_18] with MS2 coat protein and state it.
Reply: 0.0161 µM

Task item: Recorded apparent KD of MS2 coat protein for UGGUACAUGAGGAUCACCCAUGUUCCAGAUACCAGAUACCCGGUUAUCCCUUGGCAGCUGGUGUUACAUGAGGAUCACCCAUGUU [Exclusion Theophylline A GF16] with MS2 coat protein, please?
Reply: 0.0819 µM

Task item: Enter reported apparent KD of MS2 coat protein observed with MS2 coat protein for AGCUCGCGAAAGCGAGCAACAUGAUCCGAAGGAGCGCGCGAAAGCGCAGGUAGGUCGCGGACAUGAGGAUCACCCAUGUCUCCUU [MAT - Exclusion Arginine A - Mod of Eli - D14]
Reply: 0.0632 µM

Task item: Write down the reported apparent KD of MS2 coat protein of AGGUACGAAAACGUGGGUGAGUCGUACCAACGAGGACCGGUACGGCCGCCACUCGAAUAAACAUGAGGAUCACCCAUGUAAUAAU [T''-M-T'-T-MS2 - Design 6] , test system: MS2 coat protein.
Reply: 0.0665 µM

Task item: Provide the documented apparent KD of MS2 coat protein with MS2 coat protein as the system for ACAUGAGGAUCACCCAUGUACAUGAGGGAAGGAGCGGUACAUGAGCCAGGUAGGUCGCCCAUGAGCAUCAGCCAUGUACAUCAGC [vv,mmullin]
Reply: 0.101 µM

Task item: Under MS2 coat protein: apparent KD of MS2 coat protein value of UGUGUAAUUGUCUGGUAGAUUUAUUUUUUUCGAGGACCGGUACGGCCGCCACUCGUUAUUUACAUGAGGAUCACCCAUGUUAGCU [JR_ExcTryptoA_Sub007] ?
Reply: 0.0155 µM

Task item: Write down the reported apparent KD of MS2 coat protein of AGCUCUGAUACGGCCGCCACUAGAUGGUGUUGUAAGAGACGCCUACAUGAGGAUCACCCAUGUCAUAGGACCGGGUAUAAAUACA [theeternabot_sameState_MS2_Trp_B_8] , test system: MS2 coat protein.
Reply: 0.0464 µM

Task item: // map CGCCACUCGAGUGAUCCUCACGAGUGGCUACGAGGACCGGUACGGCCGCCACUCGAAUUAACAUGAGGAUCACCCAUGUAAUCUA [Brourdmod08] to recorded apparent KD of MS2 coat protein (system: MS2 coat protein)
Reply: 0.322 µM

Task item: What measured apparent KD of MS2 coat protein is associated with GAGAGUGUGUGCGAAAGCACAGAUCUGGAAGGAGCGUAGAAAGAUACAGGUAGGUCGCCGGGACAUGAGGAUCACCCAUGUGUAU [ArgiA-ms2@63] on MS2 coat protein?
Reply: 0.0358 µM

Task item: Request body: readout apparent KD of MS2 coat protein, system MS2 coat protein, query GGAUAGGACACGGCCGCCACUACCUAGGAUACUAGAAACAUUUCCUCACAUGAGGAUCACCCAUGUAGGACCGGGUGUCCUAUCG . Return the value.
Reply: 0.351 µM

Task item: API: value(readout= apparent KD of MS2 coat protein, system= MS2 coat protein, query= CUGCCAUGCAGAGAUACCAGUGAGCUCAGAACAUGAGGAUCACCCAUGUAGGUUGCCGAUCACCCUUGGCAGCUCUGCAUGGCAG [*$+%!] )
Reply: 0.0109 µM

Task item: API: value(readout= apparent KD of MS2 coat protein, system= MS2 coat protein, query= CAGGCCUUGCCCGGUGUUCCGAAAGUGGAAGGAGCGCACAUUGGUGCAGGUAGGUCGCCACAUGAGGAUCACCCAUGUCUAGGCC [Aveatti] )
Reply: 0.0225 µM

Task item: Return apparent KD of MS2 coat protein measured with MS2 coat protein given this sequence: UCGUGAGUUUCGGAUACCAGUGUGGUCGAUACAUGAGGAUCACCCAUGUUAGAGGAGGUACACCCUUGGCAGCCGGCUGUGGCGG [hlhmullin]
Reply: 0.0181 µM

Task item: For MS2 coat protein, provide apparent KD of MS2 coat protein of CCUGAUAACUGAAGGAGCGAGAAACCCUACAUGAGGAUCACCCAUGUAUACACGGGAACUUCUCAGGUAGGUCGCAGUAUGUCGG [Rienat] please.
Reply: 0.145 µM

Task item: Request body: readout apparent KD of MS2 coat protein, system MS2 coat protein, query UGGGCUGGGUGCGUAAAGGGCCUGGCGCAUCGAGGACCGGUACGGCCGCCACUCGGCUGUACAUGAGGAUCACCCAUGUCAGGGU [#1 Same State - Tryptophan A Attempt #18 (HarryS)] . Return the value.
Reply: 0.506 µM

Task item: Give recorded apparent KD of MS2 coat protein with MS2 coat protein for the following sequence: AGAGUUAGACAAAAGUCUAGCUCACCAGAAGGAGCGUCCGAAAGGACAGGUAGGUCGCUGGUACAUGAGCAUCAGCCAUGUUCCU [ArgAS 15 #OpenEnded #AlternativeMS2]
Reply: 0.0285 µM

Task item: Give apparent KD of MS2 coat protein (MS2 coat protein) of the following sequence: GUAUAUUGAAAACAAUAUACAGUGGGUGAACGAGGACCGGUACGGCCGCCACUCGGACAUGAGGAUCACCCAUGUCCAUGUGAAA [AstrosExyTryA#8]
Reply: 0.0177 µM

Task item: So what apparent KD of MS2 coat protein did AAAAUAUAGACGGCCGCCACUAUAAACAUGAGGAACAUGAGGAUCACCCAUGUAUGAGGAUCACCUAGGACCGGGUCAUAUAAAA [AstrosExyTryB#1] get with MS2 coat protein?
Reply: 0.0417 µM

Task item: Fill in the recorded apparent KD of MS2 coat protein for this sequence, with MS2 coat protein as test system: UGUAUGGACUGAAGGAGCGGGUAAUAAAUCUGAGGAUCACCCAGGUAAUAGGCGAAAGCCGCCCAGGUAGGUCGCAGUCCAUACU
Reply: 0.0188 µM

Task item: Please state recorded apparent KD of MS2 coat protein (tested on MS2 coat protein) of UAAUAAGUACCGGUUCUCAGAUCCUCAUGUCGAGGACCGGUACGGCCGCCACUCGAAACAUGAGGAUCACCCAUGUAAUAAUAAU [#07 Exclusion Tryptophan A]
Reply: 0.0545 µM

Task item: Please tell me: apparent KD of MS2 coat protein of UGGGAAGGAGGAAGGAGCGCCAUAAGGGUGACAGUCUGGGUACAUGAGGAUCACCCAUGUAGGCAGGUAGGUCGCCUCGCUCUCA [XArg-B15] , system MS2 coat protein?
Reply: 0.0143 µM

Task item: # get_value(readout= apparent KD of MS2 coat protein, system= MS2 coat protein) for GAGCGCGUGGACUGGCGUGCUCCGCUCCGUCGAGGACCGGUACGGCCGCCACUCGACAUGAGGAUCACCCAUGUGUGCGCUCGCG [#1 Exclusion - Tryptophan A Attempt #19 (HarryS)]
Reply: 0.317 µM

Task item: Form field: apparent KD of MS2 coat protein recorded for GGCCCUGCGAGCGCUCGCAGGGCCGCGGAUACCAGCGAGGUCCAUCGCCCUUGGCAGCCGAACAUGAGGAUCACCCAUGUCGGUC [#1 Same State - Theophylline A Attempt #11 (HarryS)] with MS2 coat protein (enter value)
Reply: 0.0281 µM
